- Test system: FM3A
- assay-method-text: cells
- setup-conditions: Mus musculus
Quick reference for IC50 among some compounds

Past entries and their recorded results:
# compound, IC50
records = [
    ("Nc1ncnc2c1ncn2C1O[C@H](C(O)O)[C@@H](O)[C@@H]1O (stereo not given in full)", "125 µg/mL"),
    ("CCO/N=C/[C@H]1OC(n2cnc3c(N)ncnc32)[C@H](O)[C@@H]1O (stereo not given in full)", "> 500 µg/mL"),
    ("Nc1ncnc2c1ncn2[C@@H]1O[C@H](C=NO)[C@@H](O)[C@H]1O", "2.3 µg/mL"),
]

The measured IC50 that CO/N=C/[C@H]1OC(n2cnc3c(N)ncnc32)[C@H](O)[C@@H]1O (stereo not given in full) showed for FM3A is 19 µg/mL

The measured IC50 that Nc1ncnc2c1ncn2C1CC(O)C(/C=N/O)O1 (stereo not given) showed for FM3A is 11.2 µg/mL

* * *

- Test system: E6SM
- assay-method-text: Minimum inhibitory concentration required to effect a microscopically visible change of cell morphology in human embryonic skin-muscle (E6SM) cell culture.
- Assay type: functional
- Parameters: unit not given here
recorded-endpoint: MIC

Past entries and their recorded results:
# compound, recorded-endpoint, recorded-result
rows = [
    ("O=c1[nH]c(=O)n([C@H]2C[C@H](O)[C@@H](CO)O2)cc1/C=C/Br [BRIVUDINE]", "MIC", ">400"),
    ("Nc1ncnc2c1ncn2C1CC(O)C(/C=N/O)O1 (stereo unspecified)", "MIC", 200),
    ("Nc1ncnc2c1ncn2[C@@H]1O[C@H](C=NO)[C@@H](O)[C@H]1O", "MIC", 7),
]

The measured MIC that Nc1ncnc2c1ncn2C1O[C@H](/C=N/OCc2ccccc2)[C@@H](O)[C@H]1O (stereo partly specified) showed for E6SM is 100

The measured MIC that Nc1ncnc2c1ncn2C1O[C@H](C(O)O)[C@@H](O)[C@@H]1O (stereo partly specified) showed for E6SM is >400

The measured MIC that CO/N=C/[C@H]1OC(n2cnc3c(N)ncnc32)[C@H](O)[C@@H]1O (stereo partly specified) showed for E6SM is 400

The measured MIC that Nc1ncnc2c1ncn2[C@@H]1O[C@H](C=O)[C@@H](O)[C@H]1O showed for E6SM is >400

The measured MIC that Nc1ncnc2c1ncn2C1CC(O)C(C=O)O1 (stereo unspecified) showed for E6SM is >400

The measured MIC that Nc1ccnc2c1ncn2[C@@H]1O[C@H](CO)[C@@H](O)[C@H]1O showed for E6SM is >400

The measured MIC that Nc1ncnc2c1ncn2C[C@H](O)CO [(S)-DHPA] showed for E6SM is >400

The measured MIC that Nc1ncnc2c1ncn2C1OC(C=O)CC1O (stereo unspecified) showed for E6SM is >400
